Source listed as patent US9850283B2.

IC50 listing for selected compounds.
- targetUnderTest: LK35.2-hPD-L1 cells / PE-labeled PD-1-Ig (Homo sapiens)
- Construct: expressed in transfected cells; host or cells: LK35.2 mouse B cell line
- Sequence (Q9NZQ7 19-290): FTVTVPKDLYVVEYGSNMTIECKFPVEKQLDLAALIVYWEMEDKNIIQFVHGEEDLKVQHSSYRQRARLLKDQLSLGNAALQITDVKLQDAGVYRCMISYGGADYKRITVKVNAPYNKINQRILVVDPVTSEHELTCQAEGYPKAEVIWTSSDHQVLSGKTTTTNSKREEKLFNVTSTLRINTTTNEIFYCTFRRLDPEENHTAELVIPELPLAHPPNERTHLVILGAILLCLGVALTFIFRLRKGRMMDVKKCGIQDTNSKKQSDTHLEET
- assayExplanation: LK35.2-hPD-L1 cell binding high-content screening assay
- Format: cell-based
- conditionDescription: cell binding assay, cell line not given; cluster symbol; read-out: CBA IC50 cluster
- Protocol: LK35.2-hPD-L1 Cell Binding High-Content Screening Assay. Phycoerythrin (PE) was covalently linked to the Ig epitope tag of human PD-1-Ig and fluorescently-labeled PD-1-Ig was used for binding studies with a mouse B cell line (LK35.2) stably over-expressing human PD-L1 (LK35.2-hPD-L1). Briefly, 3×10^3 LK35.2-hPD-L1 cells were seeded into 384 well plates in 20 ul of RPMI supplemented with 10% fetal calf serum and cultured overnight. […]
Positions of bridges follow the written chain, without caps; N, C: chain ends. Non-standard residues stand in square brackets, D forms with d. Residues, ends and D or L forms follow the SMILES beside them. ξ: configuration not given here. Bta = N[C@@H](Cc1csc2ccccc12)C(=O)O; Pip(4-aza) = O=C(O)[C@@H]1CNCCN1; NMehSer = CN[C@@H](CCO)C(=O)O; NMeNle = CCCC[C@H](NC)C(=O)O; NMeA = CN[C@@H](C)C(=O)O; Dab = NCC[C@H](N)C(=O)O; Dap = NC[C@H](N)C(=O)O; ξC = NC(CS)C(=O)O

compound: CCCC[C@H]1C(=O)N(C)[C@@H](CCOC)C(=O)N[C@@H](CCCNC(=N)N)C(=O)NC(C(=O)NCC(N)=O)CSCC(=O)N[C@@H](Cc2ccc(O)cc2)C(=O)N(C)[C@@H](C)C(=O)N[C@@H](CC(=O)O)C(=O)N2CCC[C@H]2C(=O)N[C@@H](Cc2cnc[nH]2)C(=O)N[C@@H](CC(C)C)C(=O)N2CCC[C@H]2C(=O)N[C@@H](Cc2c[nH]c3ccccc23)C(=O)N[C@@H](CO)C(=O)N[C@@H](Cc2csc3ccccc23)C(=O)N1C (some centres unmarked) [Example 9008] ({CH2CO}-Y[NMeA]DPHLPWS[Bta][NMeNle][NMehSer](Me)R[ξC]G-NH2; thioether N-14)
targetUnderTest: LK35.2-hPD-L1 cells / PE-labeled PD-1-Ig (Homo sapiens)
IC50: 0.158 to 4.71 nM

Turning now to a further compound:
// sample CCCC[C@H]1C(=O)N(C)[C@@H](CCCC)C(=O)N[C@@H](CC(C)C)C(=O)N[C@H](C(=O)NCC(N)=O)CSCC(=O)N[C@@H](Cc2ccc(O)cc2)C(=O)N(C)[C@@H](C)C(=O)N[C@@H](CC(N)=O)C(=O)N2CCC[C@H]2C(=O)N[C@@H](CN)C(=O)N[C@@H](CC(C)C)C(=O)N2CCNC[C@H]2C(=O)N[C@@H](Cc2c[nH]c3ccccc23)C(=O)N[C@@H](CCN)C(=O)N[C@@H](Cc2c[nH]c3ccccc23)C(=O)N1C [Example 6050] ({CH2CO}-Y[NMeA]NP[Dap]L[Pip(4-aza)]W[Dab]W[NMeNle][NMeNle]LCG-NH2; thioether N-14) , its IC50 was 4.78 to 72.9 nM
